Reported values of IC50 for individual entries
- system-tested: Phospho-EGFR (Tyr1068) in H1975 C797S cells (CRISPR-edited EGFR C797S) (Homo sapiens, UniProt P00533, C797S/L858R/T790M)
- Sequence (P00533 25-1210 T790M/C797S/L858R): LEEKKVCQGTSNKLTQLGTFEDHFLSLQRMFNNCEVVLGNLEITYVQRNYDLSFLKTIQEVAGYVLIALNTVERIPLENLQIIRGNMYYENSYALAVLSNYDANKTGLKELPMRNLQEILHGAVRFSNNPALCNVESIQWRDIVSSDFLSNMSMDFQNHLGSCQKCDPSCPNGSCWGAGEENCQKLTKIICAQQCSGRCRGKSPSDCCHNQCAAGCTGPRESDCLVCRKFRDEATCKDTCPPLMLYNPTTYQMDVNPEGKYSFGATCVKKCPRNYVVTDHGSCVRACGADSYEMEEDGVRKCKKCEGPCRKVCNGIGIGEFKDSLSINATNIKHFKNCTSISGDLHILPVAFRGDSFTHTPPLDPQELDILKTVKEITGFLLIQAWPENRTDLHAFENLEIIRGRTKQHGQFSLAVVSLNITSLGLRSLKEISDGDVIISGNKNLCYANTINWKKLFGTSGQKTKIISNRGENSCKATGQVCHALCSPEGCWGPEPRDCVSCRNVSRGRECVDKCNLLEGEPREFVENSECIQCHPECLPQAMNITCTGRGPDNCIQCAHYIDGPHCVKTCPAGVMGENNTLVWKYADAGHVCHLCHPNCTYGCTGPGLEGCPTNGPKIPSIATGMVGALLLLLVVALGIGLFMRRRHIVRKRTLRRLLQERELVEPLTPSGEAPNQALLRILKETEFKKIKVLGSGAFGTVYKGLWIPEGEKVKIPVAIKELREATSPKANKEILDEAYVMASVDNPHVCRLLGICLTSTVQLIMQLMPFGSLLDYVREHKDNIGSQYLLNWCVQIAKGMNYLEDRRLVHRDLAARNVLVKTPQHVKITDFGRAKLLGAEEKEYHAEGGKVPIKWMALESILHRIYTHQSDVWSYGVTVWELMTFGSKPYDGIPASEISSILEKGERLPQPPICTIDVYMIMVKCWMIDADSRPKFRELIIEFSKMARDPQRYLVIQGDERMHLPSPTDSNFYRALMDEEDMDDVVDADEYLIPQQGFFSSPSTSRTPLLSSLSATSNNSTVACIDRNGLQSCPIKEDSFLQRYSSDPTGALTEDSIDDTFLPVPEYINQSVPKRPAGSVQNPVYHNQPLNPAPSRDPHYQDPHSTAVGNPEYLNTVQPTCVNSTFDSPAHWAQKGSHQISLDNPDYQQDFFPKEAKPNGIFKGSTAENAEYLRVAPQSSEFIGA
- assay-summary: HTRF pEGFR/total EGFR in H1975 C797S cells
- condition-context: ratio pEGFR/total EGFR, compound 3 hours

The cases that follow already have their IC50 on record.
C#Cc1c(-c2ccccc2Cl)c(=O)n(C)c2nc(Nc3cccc(CO)c3)ncc12    1000 to 3000 nM
C#Cc1c(C)c(=O)n(Cc2ccncc2)c2nc(Nc3ccc(N4CCN(C)CC4)cc3)ncc12    1000 to 3000 nM
C#Cc1c(-c2ccccc2Cl)c(=O)n(C)c2nc(Nc3ccc(N4CCN(C)CC4)cc3OC)ncc12    1000 to 3000 nM
C#Cc1cc(=O)n(-c2ccc(NC(=O)CC)cc2)c2nc(Nc3ccccc3OC)ncc12    > 3000 nM
C#Cc1cc(=O)n(-c2ccccc2)c2nc(Nc3ccc(N4CCN(CCO)CC4)cc3)ncc12    < 500 nM

IC50 for C#Cc1cc(=O)n(C)c2nc(Nc3ccc(N4CCN(C)CC4)cc3OC)ncc12 is 500 to 1000 nM

// field: IC50; key: C#Cc1cc(=O)n2c3nc(ncc13)Nc1ccc(N3CCN(C)CC3)c(c1)OC/C=C\C2 ; value = < 500 nM

Looking up C#Cc1cc(=O)n(C2CCN(C)C2)c2nc(Nc3ccc(N4CCN(C)CC4)cc3)ncc12 (centres unmarked) , I found its IC50 recorded as 1000 to 3000 nM

The compound listed as C#Cc1c(-c2c(Cl)cccc2Cl)c(=O)n(C)c2nc(Nc3cccc(CO)c3)ncc12 has a reported IC50 of > 3000 nM

Please fill in: IC50 reported for C#Cc1cc(=O)n([C@H]2CC[C@@H](NC(=O)CN(C)C)CC2)c2nc(Nc3ccc(N4CCN(C)CC4)cc3)ncc12 = < 500 nM

For C#Cc1cc(=O)n2c3nc(ncc13)Nc1ccc(N3CCN(C)CC3)c(c1)OCCCCC2 the compound record lists IC50 as < 500 nM

Record C#Cc1cc(=O)n2c3nc(ncc13)Nc1ccc(N3CCN(C)CC3)c(c1)CC(=O)NCC2 , field IC50: 1000 to 3000 nM

---

- system-tested: CtermHisTag-mEGFR Wild type (Homo sapiens)
- Sequence (P00533 whole entry): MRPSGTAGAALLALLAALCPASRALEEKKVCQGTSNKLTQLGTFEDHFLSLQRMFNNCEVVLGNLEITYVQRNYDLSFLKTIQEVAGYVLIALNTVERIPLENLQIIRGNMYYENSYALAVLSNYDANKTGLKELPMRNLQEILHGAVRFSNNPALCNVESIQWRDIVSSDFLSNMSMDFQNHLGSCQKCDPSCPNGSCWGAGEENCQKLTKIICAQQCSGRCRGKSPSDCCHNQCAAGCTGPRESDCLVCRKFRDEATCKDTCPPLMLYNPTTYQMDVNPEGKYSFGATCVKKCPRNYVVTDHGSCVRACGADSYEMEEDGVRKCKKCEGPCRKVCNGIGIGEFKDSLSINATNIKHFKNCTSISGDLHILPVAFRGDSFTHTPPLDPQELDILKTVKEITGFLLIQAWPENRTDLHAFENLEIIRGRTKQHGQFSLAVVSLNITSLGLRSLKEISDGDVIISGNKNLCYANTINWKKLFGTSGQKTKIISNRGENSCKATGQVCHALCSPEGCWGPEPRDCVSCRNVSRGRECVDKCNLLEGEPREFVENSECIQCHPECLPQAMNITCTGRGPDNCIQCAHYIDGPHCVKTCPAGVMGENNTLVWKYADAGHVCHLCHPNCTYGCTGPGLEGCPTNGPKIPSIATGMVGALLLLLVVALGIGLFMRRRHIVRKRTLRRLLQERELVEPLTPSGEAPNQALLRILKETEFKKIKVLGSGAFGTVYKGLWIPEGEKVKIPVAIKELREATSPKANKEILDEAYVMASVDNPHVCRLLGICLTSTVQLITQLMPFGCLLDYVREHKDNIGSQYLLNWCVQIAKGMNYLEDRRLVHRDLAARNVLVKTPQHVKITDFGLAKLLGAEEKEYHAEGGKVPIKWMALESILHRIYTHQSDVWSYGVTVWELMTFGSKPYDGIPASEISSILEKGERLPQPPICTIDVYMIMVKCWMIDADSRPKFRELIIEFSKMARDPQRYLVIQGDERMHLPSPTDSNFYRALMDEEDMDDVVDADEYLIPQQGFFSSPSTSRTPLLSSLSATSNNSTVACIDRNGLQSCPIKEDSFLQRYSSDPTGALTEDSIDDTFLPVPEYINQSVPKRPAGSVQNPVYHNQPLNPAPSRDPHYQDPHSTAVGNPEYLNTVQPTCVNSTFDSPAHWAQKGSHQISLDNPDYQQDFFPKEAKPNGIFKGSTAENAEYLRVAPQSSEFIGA
- assay-summary: biochemical
pIC50: −log10 of the molar value.
measure-name: pIC50

Some solved entries appear below for comparison.
C#Cc1c(C)c(=O)n2c3nc(ncc13)Nc1cccc(c1)OCCCC2 [Example 191]    5.00 to 6.00
C#Cc1cc(=O)n(-c2ccc(OC)cc2OC)c2nc(Nc3ccc(N(C)CCN(C)C)cc3)ncc12 [Example 86]    > 6.00
C#Cc1cc(=O)n(-c2ccccc2)c2nc(Nc3ccc(N4CCC(N5CC(CO)C5)CC4)cc3)ncc12 [Example 28]    > 6.00
C#Cc1cc(=O)n(C)c2nc(Nc3ccc(N4CCN(C)CC4)c(OCCc4ccccc4)c3)ncc12 [Example 214]    > 6.00
C#Cc1cc(=O)n([C@H]2CC[C@@H](NC(=O)CCC(=O)NC)CC2)c2nc(Nc3ccc(N4CCN(C)CC4)cc3)ncc12 [Example 98]    5.00 to 6.00

In plain terms, C=Cc1c(-c2c(Cl)cccc2Cl)c(=O)n(C)c2nc(Nc3ccc(N(C)CCN(C)C)cc3)ncc12 [Example 167] has a documented pIC50 of < 5.00

Entry C#Cc1cc(=O)n(C2CCCC2)c2nc(Nc3cccc(CN4CCC(CS(C)(=O)=O)C4)c3)ncc12 (stereo not shown) [Example 182] — recorded pIC50 = < 5.00

For reference, reported pIC50 for C#Cc1cc(=O)n(-c2ccccc2)c2nc(Nc3ccc(N(C)C(=O)CCOC)cc3OC)ncc12 [Example 36] stands at 5.00 to 6.00
